Type: physicochemical
CONDITION_CONTEXT: Temperature 25 ° C.
Consider the following compounds and their measured Cp readings.

{"columns": ["COMPOUND", "RESULT"],
 "data": [
  ["FC(=C(F)C(F)(F)F)N(C(F)(F)F)C(F)(F)F [Preparatory Example 1]", "1.28 J/(g · ° C.)"]
]}

Reported Cp, compound F/C(=C(/F)C(F)(F)F)N1C(F)(F)C(F)(F)OC(F)(F)C1(F)F [Preparatory Example 2] : ____
1.11 J/(g · ° C.)

Reported Cp, compound FC(=C(F)C(F)(F)F)N(C(F)(F)F)C(F)(F)C(F)(F)F [Preparatory Example 5] : ____
1.21 J/(g · ° C.)

Reported Cp, compound CCOC(F)(C(F)(F)C(F)(F)C(F)(F)F)C(F)(C(F)(F)F)C(F)(F)F (stereo not shown) [Novec 7500] : ____
1.10 J/(g · ° C.)

* * *

Format: physicochemical
CONDITION_CONTEXT: Temperature 15 ° C.
Consider the following molecules and their measured Cp readings.

Answered cases to consult:
{"columns": ["MOLECULE", "Cp"],
 "data": [
  ["FC(=C(F)C(F)(F)F)N(C(F)(F)F)C(F)(F)F", "1.25 J/(g · ° C.)"],
  ["FC(=C(F)C(F)(F)F)N(C(F)(F)F)C(F)(F)C(F)(F)F", "1.18 J/(g · ° C.)"]
]}

Reported Cp, molecule F/C(=C(/F)C(F)(F)F)N1C(F)(F)C(F)(F)OC(F)(F)C1(F)F : ____
1.09 J/(g · ° C.)

Reported Cp, molecule CCOC(F)(C(F)(F)C(F)(F)C(F)(F)F)C(F)(C(F)(F)F)C(F)(F)F (stereo not shown) : ____
1.08 J/(g · ° C.)

* * *

Assay type: physicochemical
CONDITION_CONTEXT: Temperature 30 ° C.
PROPERTY_LABEL: Cp

{"columns": ["COMPOUND", "PROPERTY_LABEL", "RESULT"],
 "data": [
  ["FC(=C(F)C(F)(F)F)N(C(F)(F)F)C(F)(F)C(F)(F)F [Preparatory Example 5]", "Cp", "1.22 J/(g · ° C.)"],
  ["CCOC(F)(C(F)(F)C(F)(F)C(F)(F)F)C(F)(C(F)(F)F)C(F)(F)F (stereo not shown) [Novec 7500]", "Cp", "1.11 J/(g · ° C.)"],
  ["F/C(=C(/F)C(F)(F)F)N1C(F)(F)C(F)(F)OC(F)(F)C1(F)F [Preparatory Example 2]", "Cp", "1.12 J/(g · ° C.)"]
]}

Here's the next entry for you.
Reported Cp, compound FC(=C(F)C(F)(F)F)N(C(F)(F)F)C(F)(F)F [Preparatory Example 1] : ____
1.30 J/(g · ° C.)

* * *

Type: physicochemical
CONDITION_CONTEXT: Temperature 35 ° C.
PROPERTY_LABEL: Cp

{"columns": ["MOLECULE", "Cp"],
 "data": [
  ["F/C(=C(/F)C(F)(F)F)N1C(F)(F)C(F)(F)OC(F)(F)C1(F)F [Preparatory Example 2]", "1.13 J/(g · ° C.)"]
]}

Reported Cp, molecule FC(=C(F)C(F)(F)F)N(C(F)(F)F)C(F)(F)C(F)(F)F [Preparatory Example 5] : ____
1.23 J/(g · ° C.)

Reported Cp, molecule FC(=C(F)C(F)(F)F)N(C(F)(F)F)C(F)(F)F [Preparatory Example 1] : ____
1.32 J/(g · ° C.)

Reported Cp, molecule CCOC(F)(C(F)(F)C(F)(F)C(F)(F)F)C(F)(C(F)(F)F)C(F)(F)F (stereo not shown) [Novec 7500] : ____
1.12 J/(g · ° C.)

* * *

Format: physicochemical
CONDITION_CONTEXT: Temperature 20 ° C.
PROPERTY_LABEL: Cp

Reported Cp, molecule FC(=C(F)C(F)(F)F)N(C(F)(F)F)C(F)(F)F : ____
1.27 J/(g · ° C.)

Reported Cp, molecule CCOC(F)(C(F)(F)C(F)(F)C(F)(F)F)C(F)(C(F)(F)F)C(F)(F)F (stereo not shown) : ____
1.09 J/(g · ° C.)

Reported Cp, molecule FC(=C(F)C(F)(F)F)N(C(F)(F)F)C(F)(F)C(F)(F)F : ____
1.20 J/(g · ° C.)

Reported Cp, molecule F/C(=C(/F)C(F)(F)F)N1C(F)(F)C(F)(F)OC(F)(F)C1(F)F : ____
1.10 J/(g · ° C.)

* * *

Format: physicochemical
CONDITION_CONTEXT: Temperature 40 ° C.
PROPERTY_LABEL: Cp

{"columns": ["MOLECULE", "RESULT"],
 "data": [
  ["CCOC(F)(C(F)(F)C(F)(F)C(F)(F)F)C(F)(C(F)(F)F)C(F)(F)F (stereo not shown)", "1.13 J/(g · ° C.)"],
  ["FC(=C(F)C(F)(F)F)N(C(F)(F)F)C(F)(F)C(F)(F)F", "1.24 J/(g · ° C.)"],
  ["F/C(=C(/F)C(F)(F)F)N1C(F)(F)C(F)(F)OC(F)(F)C1(F)F", "1.14 J/(g · ° C.)"]
]}

Reported Cp, molecule FC(=C(F)C(F)(F)F)N(C(F)(F)F)C(F)(F)F : ____
1.34 J/(g · ° C.)
